Test: Maximum plasma concentration after peroral administration (5 mpk) was determined in dog
Format: ADME, organism-based, Canis lupus familiaris
Set-up: route oral
Conditions: po, 5 mg/kg
readoutLabel: Cmax (nM)
The reply should contain only the number, in nM.

Name the reported Cmax value associated with the molecule O=C1CN(S(=O)(=O)/C=C/c2ccc(Cl)s2)CCN1Cc1cc2c[nH]ccc-2n1 1640

---

Test: Ionization constant is the negative logarithm of the equilibrium coefficient of the neutral and charged forms of the compound
Type: physicochemical
readoutLabel: pKa
Answer field: number only, no words.

Name the reported pKa value associated with the molecule O=C1CN(S(=O)(=O)c2cc3ccc(Cl)cc3s2)CCN1Cc1cc2c[nH]ccc-2n1 8.3

---

Assay: Ionization constant was determined for the compound
Assay type: physicochemical
Please provide measured pKa for the entries that follow.
Answer field: number only, no words.

Name the reported pKa value associated with the compound Nc1[nH]ccc2nc(CN3CCN(S(=O)(=O)c4cc5ccc(Cl)cc5s4)CC3=O)cc1-2 9.3

Query O=C1CN(S(=O)(=O)c2cc3ccc(Cl)cc3s2)CCN1Cc1cc2cnccc2o1 next 5.8

Query O=C1CN(S(=O)(=O)c2cc3ccc(Cl)cc3s2)CCN1Cc1nc2cc[nH]cc-2n1 next 6.1

Query O=C1CN(S(=O)(=O)c2cc3ccc(Cl)cc3s2)CCN1Cc1cc2[nH]cccc-2n1 next 6.9

Query O=C1CN(S(=O)(=O)c2cc3ccc(Cl)cc3s2)CCN1Cc1cc2cc[nH]cc-2n1 next 8

---

Assay: Half life period after peroral administration (5 mpk) was determined in dog
Type: ADME, organism-based, Canis lupus familiaris
Conditions: in vivo, po, 5 mg/kg
readoutLabel: half-life (min)
The reply should contain only the number, in min.

Name the reported half-life value associated with the compound O=C1CN(S(=O)(=O)/C=C/c2ccc(Cl)s2)CCN1Cc1cc2c[nH]ccc-2n1 52

---

Ki values recorded for UniProtKB P00742
Sequence (P00742 41-179 limits assumed): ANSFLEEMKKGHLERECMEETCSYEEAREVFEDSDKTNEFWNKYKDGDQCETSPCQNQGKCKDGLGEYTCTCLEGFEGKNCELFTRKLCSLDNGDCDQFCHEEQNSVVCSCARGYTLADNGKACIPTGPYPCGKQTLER
Sequence (P00742 235-488 limits assumed): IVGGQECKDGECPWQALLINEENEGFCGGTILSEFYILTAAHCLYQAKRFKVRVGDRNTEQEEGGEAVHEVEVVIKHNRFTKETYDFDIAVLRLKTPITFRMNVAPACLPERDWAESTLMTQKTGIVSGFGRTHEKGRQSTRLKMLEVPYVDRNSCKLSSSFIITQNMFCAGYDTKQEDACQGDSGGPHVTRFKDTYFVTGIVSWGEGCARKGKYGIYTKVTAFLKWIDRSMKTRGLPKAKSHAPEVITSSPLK
The reply should contain only the number, in µM.

Name the reported Ki value associated with the compound COC(=O)Cn1c(CN2CCN(S(=O)(=O)c3cc4ccc(Cl)cc4s3)CC2=O)cc2cnccc21 0.018

Query O=C(O)Cn1c(CN2CCN(S(=O)(=O)c3cc4ccc(Cl)cc4s3)CC2=O)cc2cnccc21 next 0.154

---

Assay: Percent oral bioavailability after peroral administration (5 mpk) was determined in dog
Format: ADME, organism-based, Canis lupus familiaris
Conditions: in vivo, 5 mg/kg
readoutLabel: bioavailability (%)
The reply should contain only the number, in %.

Name the reported bioavailability value associated with the compound O=C1CN(S(=O)(=O)/C=C/c2ccc(Cl)s2)CCN1Cc1cc2c[nH]ccc-2n1 97

---

Test: Half life period after peroral administration (10 mpk) was determined in dog
Assay type: ADME, organism-based, Canis lupus familiaris
Conditions: in vivo, po, 10 mg/kg
readoutLabel: half-life

Name the reported half-life value associated with the molecule O=C1CN(S(=O)(=O)c2cc3ccc(Cl)cc3s2)CCN1Cc1cc2c[nH]ccc-2n1 0.6 h

Query O=C1CN(S(=O)(=O)c2cc3ccc(Cl)cc3s2)CCN1Cc1cc2cnccc2n1CCO next 2.32 h

---

Experiment: Maximum plasma concentration after peroral administration (10 mpk) was determined in dog
Format: ADME, organism-based, Canis lupus familiaris
Set-up: route oral
Conditions: po, 10 mg/kg
Please provide measured Cmax for the entries that follow.
The reply should contain only the number, in nM.

Name the reported Cmax value associated with the compound O=C1CN(S(=O)(=O)c2cc3ccc(Cl)cc3s2)CCN1Cc1cc2cnccc2n1CCO 783

Query O=C1CN(S(=O)(=O)c2cc3ccc(Cl)cc3s2)CCN1Cc1cc2c[nH]ccc-2n1 next 658
